Data provenance is patent US20240293570A1.

Assay: Stability (placement) test of ADCs at 40° C. in dark for 14 days, DAR and polymer content
Assay type: physicochemical
Details: Day 0, 40° C. in dark
*1 amine or outer side, *2 acyl side, *3 side chain or, on linkers, in order; H or OH if unused. Where a SMILES comes first, the peptide text is derived from it. [ ]: non-standard residue; d: D form. The star is where a group is joined. MaleimidoPEG4propanoyl = O=C1C=CC(=O)N1CCOCCOCCOCCOCCC(=O)*; X2 = CO[C@@H]([C@H]1CCCN1[*:1])[C@@H](C)C(=O)[*:2]; Dil = CC[C@H](C)[C@H](NC)[C@@H](CC(=O)O)OC; X1 = O=C(CN1CCOCCN([*:1])CCOCC1)[*:2]; PABC = O=C(OCc1ccc(N[*:1])cc1)[*:2]; X3 = C[C@@H](N*)[C@@H](O)c1ccccc1; NMeV = CN[C@H](C(=O)O)C(C)C
Would you mind labelling by Polymer content (%)? At or over 0.9% is class 1, under is class 0.

CC[C@@]1(O)C(=O)OCc2c1cc1n(c2=O)Cc2c-1nc1cc(F)c(C)c3c1c2[C@@H](NC(=O)COCNC(=O)CNC(=O)CNC(=O)CNC(=O)CN1CCOCCN(C(=O)CCN2C(=O)C=CC2=O)CCOCC1)CC3    class 0
C=C1C[C@@H]2CC[C@@]34C[C@H]5OC6C(O[C@H]7CC[C@H](CC(=O)C[C@@H]8[C@@H](OC)[C@@H](C[C@H](O)CNC(=O)OCc9ccc(NC(=O)[C@H](CCCNC(N)=O)NC(=O)[C@@H](NC(=O)CN%10CCOCCN(C(=O)CCN%11C(=O)C=CC%11=O)CCOCC%10)C(C)C)cc9)O[C@H]8C[C@H]8O[C@@H](CC[C@@H]1O2)C[C@@H](C)C8=C)O[C@@H]7[C@@H]6O3)[C@H]5O4    class 1
CC[C@H](C)[C@@H]([C@@H](CC(=O)N1CCC[C@@H]1[C@H](OC)[C@@H](C)C(=O)N[C@H](C)[C@@H](O)c1ccccc1)OC)N(C)C(=O)[C@@H](NC(=O)[C@H](C(C)C)N(C)C(=O)OCc1ccc(NC(=O)CNC(=O)[C@H](Cc2ccccc2)NC(=O)CNC(=O)CNC(=O)CN2CCOCCN(C(=O)CCOCCOCCOCCOCCN3C(=O)C=CC3=O)CCOCC2)cc1)C(C)C [Example 85] (MaleimidoPEG4propanoyl-[X1]GGFG[PABC][NMeV]V[Dil][X2]-X3)    class 1
C=C1C[C@@H]2CC[C@@]34C[C@H]5OC6C(C[C@H]7CC[C@H](CC(=O)C[C@@H]8[C@@H](OC)[C@@H](C[C@H](O)CNC(=O)CNC(=O)[C@H](Cc9ccccc9)NC(=O)CNC(=O)CNC(=O)CCC(=O)N9CCOCCN(C(=O)CCN%10C(=O)C=CC%10=O)CCOCC9)O[C@H]8C[C@H]8O[C@@H](CC[C@@H]1O2)C[C@@H](C)C8=C)O[C@@H]7[C@@H]6O3)[C@H]5O4    class 0
CCc1c2c(nc3ccc(O)cc13)-c1cc3c(c(=O)n1C2)CCC(=O)[C@@]3(CC)OC(=O)N(C)CCN(C)C(=O)COCNC(=O)CNC(=O)[C@H](Cc1ccccc1)NC(=O)CNC(=O)CNC(=O)CN1CCOCCN(C(=O)CCN2C(=O)C=CC2=O)CCOCC1    class 0

// query Given the entry `C=C1C[C@@H]2CC[C@@]34C[C@H]5OC6C(O[C@H]7CC[C@H](CC(=O)C[C@@H]8[C@@H](OC)[C@@H](C[C@H](O)CNC(=O)CNC(=O)[C@H](Cc9ccccc9)NC(=O)CNC(=O)CN9CCOCCOCCN(C(=O)CCCCCN%10C(=O)C=CC%10=O)CCOCCOCC9)O[C@H]8C[C@H]8O[C@@H](CC[C@@H]1O2)C[C@@H](C)C8=C)O[C@@H]7[C@@H]6O3)[C@H]5O4` , answer whether its Polymer content (%) meets or surpasses 0.9%.
// result class 1

// query Given the entry `C=C1C[C@@H]2CC[C@@]34C[C@H]5OC6C(O[C@H]7CC[C@H](CC(=O)C[C@@H]8[C@@H](OC)[C@@H](C[C@H](O)CNC(=O)CNC(=O)[C@H](Cc9ccccc9)NC(=O)CNC(=O)CNC(=O)CN9CCOCCOCCN(C(=O)CCCC%10C(=O)C=CC%10=O)CCOCCOCC9)O[C@H]8C[C@H]8O[C@@H](CC[C@@H]1O2)C[C@@H](C)C8=C)O[C@@H]7[C@@H]6O3)[C@H]5O4` , answer whether its Polymer content (%) meets or surpasses 0.9%.
// result class 1
